Test system: OVCAR-5 ovarian
Assay: NCI tumour cell line growth inhibition, 48 h
TGI for assorted compounds
A number alone suffices; assume µM.

INSERT INTO measurements (compound, measured_attribute, unit_spec, numeric_value) VALUES
  ('C=C1CC[C@@H]2[C@](C)(COC(C)=O)[C@H](OC(C)=O)CC[C@@]2(C)[C@@H]1CC(Sc1ccccc1)C1=CCOC1=O (stereo partly specified)', 'TGI', 'µM', 4.67),
  ('COc1ccc(C2COc3cc(OC(C)=O)c(OC(C)=O)cc3C2)cc1 (stereo unspecified)', 'TGI', 'µM', 51.7);

Shifting focus to the compound that follows.
Value lookup for TGI; key = CCCCCCCCCCCCOC1C(C(COC2OC(C3COC(C)(C)O3)C3OC(C)(C)OC23)NC(=O)Nc2ccc(C(=O)O)cc2)OC2OC(C)(C)OC21 (stereo unspecified)
6.85

---

Tested on: SK-OV-3 ovarian
Test: NCI tumour cell line growth inhibition, 48 h
Recorded TGI for the following compounds

// below: answered compounds
INSERT INTO results (compound, result) VALUES
  ('Clc1nc2ccccc2nc1CI', '30.4 µM'),
  ('CC(=O)O[C@H]1C[C@H]2[C@@H](OC(C)=O)/C=C3\C[C@](C)(C(=O)[C@H](O)C(=C1C)C2(C)C)[C@@H](O)C[C@@H]3OC(=O)[C@H](O)[C@H](c1ccccc1)N(C)C', '> 100 µM'),
  ('COc1ccc(-n2cc(-c3cc(OC)c(OC)c(OC)c3)c(C(=O)C(F)(F)F)c2C)cc1', '> 100 µM'),
  ('[Cl][Hg][c]1cc(Br)cc(Br)c1', '13 µM'),
  ('OC1(C(F)(F)F)OCCN=C1C(F)(F)F (stereo not given)', '> 100 µM'),
  ('N#Cc1nc(Nc2cccc3ccccc23)sc1N', '> 100 µM'),
  ('CO/N=C/c1cc(OC)c(OC)c(OC)c1', '> 100 µM'),
  ('CCOC(=O)c1c(-c2ccc(OC)cc2)c(C#N)c(=S)n(C2OC(COC(C)=O)C(OC(C)=O)C(OC(C)=O)C2OC(C)=O)c1-c1ccccc1 (stereo not given)', '> 100 µM');

Query the reported TGI for SK-OV-3 ovarian; item: CC(=O)Nc1ccc(C(=O)NN2C(=O)CSC2c2ccc([N+](=O)[O-])cc2)cc1 (stereo not given)
> 100 µM

# query: TGI | item CCCn1c2ccccc2c2ccc3c(c21)C(=O)C=CC3=O | system: SK-OV-3 ovarian
> 10 µM

---

Tested on: KM12 colon
Assay: NCI tumour cell line growth inhibition, 48 h
measured.attribute: TGI

Report TGI for Cc1ccc(C)c(C2=C(c3cn(C)c4ccccc34)C(=O)NC2=O)c1 please.
> 25 µM

Given the entry CC(O)CCC(=O)c1ccoc1 (stereo unspecified) , report its measured TGI.
> 8110 µM

TGI lookup needed for CC(C)(C)OC(=O)N1CCc2[nH][nH]c(=O)c2C1 , thanks.
> 100 µM

Quick one: TGI of COC(=O)C(=Cc1cc(OC)ccc1OC)C(=O)OC ?
42.8 µM

Can you look up the measured TGI of COc1cc(C#CC(=O)OC/C=C/c2ccc3c(c2)OCO3)cc(OC)c1OC for me?
> 100 µM

Which value of TGI has been reported for COC(=O)c1cc2c(s1)C(=O)c1ccccc1-2 in the records?
> 100 µM
